Entry source: ChEMBL document CHEMBL3988442

- System: Wolbachia pipientis
- run_description: Anti-Wolbachia Cell-Based Screen
- Type: functional
- Design: scale not given: in the data most compounds retested in dose-response had high values
- condition_notes: 5 µM
Hit rate of the full screen: of about 48,000 compounds, about 13,000 (27%) showed an effect of 50% or more. Some of the results follow.
Catalogue of compounds with associated Percent Effect
Please reply with the bare figure in % and do not write the unit itself.

compound	tested_system	value_measured
CC(=O)N1CCCN(C(=O)NC(C)c2ccc(C)o2)CC1 (configuration not stated)	Wolbachia pipientis	-7.479
Cc1ccc(-c2nc(CC(=O)N3CCCC(NC(=O)C(C)C)C3)cs2)o1 (configuration not stated)	Wolbachia pipientis	6.035
CCc1ncc(C(=O)NC(C)(C)CC)s1	Wolbachia pipientis	-4.681
CCCNC(=O)C(C)n1cc(Br)cn1 (configuration not stated)	Wolbachia pipientis	-2.063
FC(F)(F)c1ccccc1CCC1CCCN(Cc2cscn2)C1 (configuration not stated)	Wolbachia pipientis	15.59

Here is another compound to look at.
stdin: Recorded Percent Effect of Cc1noc(C)c1S(=O)(=O)N(CC(N)=O)CC(C)C , please.
stdout: 2.709
